In this section we review reported protein stability index values for a set of variants.
B1: RAD54B (parent)
chain: YVQEKRDGLKRRQQLEEELLRAKI

Variants of: B1
RUN DESCRIPTION: protein stability index of a GFP-peptide fusion (GPS, HEK-293T) (PSI 1-6); higher = more stable;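 further: lentivirally expressed fusions sorted by FACS into six bins by GFP to DsRed ratio, PSI derived from sequencing read proportions per bin multiplied by bin number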
RECORDED CONDITIONS: c terminus: a fixed tail appended
The reply should be a number, written without any unit.

YVQEKRDGLKRRQQLEEELLRNKI [A22N]	2.01
YVQEKRDGLKRRQQLEEELLRAKA [I24A]	1.98
YVQEKRDGWKRRQQLEEELLRAKI [L9W]	1.81
YVQEKRDGLKRRQQLEEQLLRAKI [E18Q]	2.03
YVQEKRDGLKRRQQLEEELLFAKI [R21F]	1.93

// below: protein stability index requested for another variant
Query string: What value of measured protein stability index is listed for YVQEKRDGLKRRQQLFEELLRAKI [E16F] ?
Result string: 2.74
